I'd appreciate it if you could supply TGI values for the items below.
System: MOLT-4 leukemia
Test Summary: NCI tumour cell line growth inhibition, 48 h
Answers are plain numbers, in µM.

CCCN(CCC)c1ccc(C=O)c(Cl)c1 | 97.1
C/C(=C(/c1ccccc1)c1ccc(OCC(O)CNCCN2CCOCC2)cc1)c1ccccc1 (centres undefined) | 5.41
COc1ccc2c(c1)CN([C@@H](C)[C@H]1CC[C@H]3[C@@H]4CC[C@H]5C[C@@H](O)CC[C@]5(C)[C@H]4CC[C@]13C)CO2 | 2.98

Q: May I ask what TGI has been recorded for COc1ccc2cc(CNCCCCCCCCNCc3ccc4cc(OC)ccc4c3)ccc2c1 ?
Result: 7.5

These measurements were taken from PubChem BioAssay (NCI).
